endpointName: melting point

Guide cases for melting point, answers given:
{"columns": ["compound", "endpointName", "result"],
 "data": [
  ["COc1cc2c(Oc3ccc(NS(=O)(=O)c4csc5ccccc45)cc3F)ccnc2cc1OCCCN1CCC(C)CC1 [Example 115]", "melting point", "132 to 135 °C"],
  ["COc1cc2c(Oc3ccc(NS(=O)(=O)c4cc(Cl)cc(Cl)c4OC)cc3F)ccnc2cc1OCCCN1CCCC(C)C1 (stereo not shown) [Example 75]", "melting point", "145 to 146 °C"],
  ["COc1cc2c(Oc3ccc(NS(=O)(=O)c4csc5ccccc45)cc3F)ccnc2cc1OCCCN1CCOCC1 [Example 114]", "melting point", "196 to 197 °C"],
  ["COc1cc2c(Oc3ccc(NS(=O)(=O)c4ccc(F)c(F)c4F)cc3F)ccnc2cc1OCCCN1CCN(C)CC1 [Example 17]", "melting point", "88 to 90 °C"]
]}

Reported melting point ( COc1cc2c(Oc3ccc(NS(=O)(=O)c4ccc(Cl)s4)cc3F)ccnc2cc1OCCCN1CCCC(C)C1 (stereo not shown) [Example 63] ) = 100 to 103 °C

Reported melting point ( COc1cc2c(Oc3ccc(NS(=O)(=O)c4cccc(C#N)c4)cc3F)ccnc2cc1OCCCN1CCCC(C)C1 (stereo not shown) [Example 41] ) = 125 to 127 °C

Reported melting point ( COc1ccc2nccc(Oc3ccc(NS(=O)(=O)c4cc(F)ccc4F)cc3F)c2c1 [Example 199] ) = 249 to 250 °C

* * *

pIC50 for assorted compounds
system: indicated cell line; experiment: Wound healing migration assay (Table IV); assay type: cell-based; conditions: Homo sapiens, A 172; A172 cells; compounds at 12.5, 6.25, 3.125 μM; 48 h-72 h; read-out: IC50 Wound healing Assay A172
pIC50: −log10 of the molar value.

Guide cases for pIC50, answers given:
{"columns": ["compound", "result"],
 "data": [
  ["COc1cc2c(Oc3ccc(NS(=O)(=O)c4ccccc4C(F)(F)F)cc3F)ccnc2cc1OCCCN(C)C [Example 100]", "≥ 4.90"],
  ["COc1cc2c(Oc3ccc(NS(=O)(=O)c4c(F)cccc4F)cc3F)ccnc2cc1OCCCN1CCN(C)CC1 [Example 110]", "≥ 4.90"],
  ["COc1cc2c(Oc3ccc(NS(=O)(=O)c4c(Cl)cccc4Cl)cc3F)ccnc2cc1OCCCN1CCCCC1 [Example 6]", "≥ 4.90"]
]}

Next up:
Reported pIC50 ( COC(=O)c1sccc1S(=O)(=O)Nc1ccc(Oc2ccnc3cc(OCCCN4CCOCC4)c(OC)cc23)c(F)c1 [Example 157] ) = ≥ 4.90

* * *

melting point for assorted compounds

Guide cases for melting point, answers given:
{"columns": ["compound", "result"],
 "data": [
  ["COc1cc2c(Oc3ccc(NS(=O)(=O)c4ccc(F)cc4F)cc3F)ccnc2cc1OCCCN1CCN(C)CC1", "99 to 102 °C"],
  ["COc1cc2c(Oc3ccc(NS(=O)(=O)c4ccccc4[N+](=O)[O-])cc3F)ccnc2cc1OCCN1CCOCC1", "129 to 131 °C"],
  ["COc1cc2c(Oc3ccc(NS(=O)(=O)c4csc5ccccc45)cc3Cl)ccnc2cc1OCCCN1CCN(C)CC1", "98 to 101 °C"]
]}

Next up:
Reported melting point ( COc1cc2c(Oc3ccc(NS(=O)(=O)c4ccc(Cl)s4)cc3F)ccnc2cc1OCCCN1CCCCC1C (stereo not shown) ) = 118 to 120 °C
